testDetails: NCI Yeast Anticancer Drug Screen. Data for the mlh1 rad18 strain (AID 175)
measurementConditions: S. cerevisiae mlh1 rad18 strain growth inhibition; at 50.0 µM
This is part of a sample that, as a whole, favours compounds with a hit. Of some 79,000 tested, about 15% had one in any assay. Active and inactive are the calls of the source. No stated cut-off is given here; in the data, active means growth inhibition above about 70%; inactive means the rest.
Permitted responses: active, inactive

Example results:
CCC(CC)COC(=O)C(C)=O
inactive
N#CSc1cc(SC#N)c2ccccc2c1N
inactive
O=C(/C=C/C(=O)OCCCl)OCCCl
active

Given CCCCCCC(=O)CC(SCCN)c1ccccc1Cl (stereo not drawn) , state the outcome it received in this test.
active

Given CN(C)c1ccc2c(c1)Cc1cc(NC(=O)/C=C/C(=O)O)ccc1-2 , state the outcome it received in this test.
inactive

Given NNc1cc([N+](=O)[O-])ccc1Cl , state the outcome it received in this test.
active

Given Cc1ccc(C)c(NC(=O)CC2SC(=Nc3ccccc3Cl)NC2=O)c1 (stereo not drawn) , state the outcome it received in this test.
inactive

Given Cn1cc(/C=C/[N+](=O)[O-])c2ccc(OCc3ccccc3)cc21 , state the outcome it received in this test.
inactive

Given O=[N+]([O-])c1cc(I)c(O)c(/C=N/NS(=O)(=O)c2ccc(Cl)cc2)c1 , state the outcome it received in this test.
active

Given CN1c2ccccc2C(C)(C)C12C=Cc1cc(O)ccc1O2 (stereo not drawn) , state the outcome it received in this test.
inactive

----------
testDetails: NCI Yeast Anticancer Drug Screen. Data for the rad50 strain (AID 155);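 further: 0% = growth of vehicle-only cultures of the same strain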
measurementConditions: S. cerevisiae rad50 strain growth inhibition; at 5.0 µM (retest, dose inferred, filed as 0.5); active compounds read high
The panel holds about 79,000 compounds, 15% with a hit somewhere; the sample as a whole holds those more often.
Below: a set of entries, each annotated with reported growth inhibition.
Report the value in % with no unit label.

// solved cases for growth inhibition follow
NNC(=O)c1c(SCc2ccccc2)nc2c3ccccc3ccn12
40
COc1c2occc2c(OC)c2c(C)c(C(=O)OCCN3CCOCC3)oc12
-1
CCOC(=O)c1c(C)[nH]c(CO)c1C
-1

Kindly note the recorded growth inhibition for CNC(Cc1ccccc1)c1ccc(OC)c2ccccc12 (stereo not given) , which is 3

Kindly note the recorded growth inhibition for O=C(Nc1c(Cl)cccc1Cl)OCCOc1ccc(Cl)cc1Cl , which is 44

Kindly note the recorded growth inhibition for COc1cccnc1/C=N/NC(N)=S , which is -4

Kindly note the recorded growth inhibition for COc1ccc(C(=O)C(CCC(=O)/C=C/c2ccccc2)S(C)(=O)=O)cc1 (stereo not given) , which is 8

Kindly note the recorded growth inhibition for CCN1/C(=C\c2cc[n+](CC)c3ccccc23)C=Cc2ccccc21 , which is -3

----------
testDetails: NCI Yeast Anticancer Drug Screen. Data for the mec2-1 strain (AID 157)
measurementConditions: S. cerevisiae mec2-1 strain, at 50.0 µM, active compounds read high
About 79,000 compounds went through this panel and 15% of them were active in at least one assay; those are over-represented in the sample as a whole.
Below: a set of entries, each annotated with reported growth inhibition.
Report the value in % with no unit label.

// solved cases for growth inhibition follow
CC(C)(Sc1cc(Cl)c(Cl)c(Cl)c1)C(=O)OCCN1CCOCC1
99.6
Cc1ccc(I)c(C(C)(C)O)c1
56.6
O=C1c2ccccc2C(=O)N1c1ccccc1
-5.9

Kindly note the recorded growth inhibition for CCN(CC)CCOc1ccc(/C(C#N)=C/c2ccc(C(F)(F)F)cc2)cc1 , which is 48.6

Kindly note the recorded growth inhibition for Nc1ncnc2c1c(-c1ccccc1)cn2-c1ccc(Cl)cc1 , which is 15.5

Kindly note the recorded growth inhibition for O.O.O=C(O)C(O)C(O)C(OC1OC(CO)C(O)C(O)C1O)C(O)CO.O=C(O)C(O)C(O)C(OC1OC(CO)C(O)C(O)C1O)C(O)CO.[NH-]C1CCCCC1[NH-].[Pt+2] (stereo not given) , which is 99.6

Kindly note the recorded growth inhibition for C[N+](C)(C)c1nc(N)nc2c1ncn2C1OC(CO)C(O)C1O (stereo not given) , which is 6.5

Kindly note the recorded growth inhibition for CC(=O)Nc1nnc(C)s1 , which is -11.8

Kindly note the recorded growth inhibition for c1cc(NC2CCCCC2)ccc1CN1CCOCC1 , which is 70.5

Kindly note the recorded growth inhibition for O=C(O)/C=C/c1ccc([N+](=O)[O-])o1 , which is 80
